experimentalTarget: T1, TDP-3 peptide (human)
T1 construct: Irrelevant control peptide; conjugated to Luminex beads in the assay; also called TDP-43 aa 310-370; irrelevant target
T1 peptide: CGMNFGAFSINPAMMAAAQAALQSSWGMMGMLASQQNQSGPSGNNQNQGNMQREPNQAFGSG
protocol: Luminex bead assay, TDP-3 peptide beads (irrelevant target)

{"binder": "ACI-7062-415C4-Ab1 (antibody, IgG1, V domains shown, also called 415C4C6; clone 14) VH: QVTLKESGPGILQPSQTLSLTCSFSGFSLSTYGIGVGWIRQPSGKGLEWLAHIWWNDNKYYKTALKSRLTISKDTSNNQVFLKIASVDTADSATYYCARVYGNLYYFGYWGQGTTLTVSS VL: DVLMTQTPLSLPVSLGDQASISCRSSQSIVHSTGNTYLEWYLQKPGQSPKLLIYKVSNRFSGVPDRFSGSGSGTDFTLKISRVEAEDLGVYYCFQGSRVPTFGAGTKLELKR", "binding result": "no binding"}
{"binder": "ACI-7062-406E3-Ab1 (antibody, IgG2a, V domains shown, also called 406E3D5; clone 5) VH: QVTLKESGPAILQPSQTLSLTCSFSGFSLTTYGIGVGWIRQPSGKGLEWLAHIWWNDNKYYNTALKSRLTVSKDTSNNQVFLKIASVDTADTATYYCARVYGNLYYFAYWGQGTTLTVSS VL: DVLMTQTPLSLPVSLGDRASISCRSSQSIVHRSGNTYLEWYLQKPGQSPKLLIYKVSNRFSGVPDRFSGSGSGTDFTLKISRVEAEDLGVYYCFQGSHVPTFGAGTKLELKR", "binding result": "no binding"}
